This collection of values is drawn from paper PMC11784145.

measurement protocol: Solubility limit, turbidimetric assay
Type: physicochemical
experimental parameters: pH 7.4 (DMEM-F12 with 10% FBS); upper limit 200 µM
Description: Solubility limits were determined by a turbidimetric assay, as described ([27]), with the solubility limit being defined as the compound concentration where light scattering began to rise. Two or more replicate assays were performed for each compound at each pH on different days.
measured parameter: Average Sol (solubility limit)

Solved entries (count: 4):
{"columns": ["smiles notation", "observed"],
 "data": [
  ["CC(=NOCc1cccc(C)c1)c1c(C)cc(=O)n(O)c1O", "> 200 µM"],
  ["CC(=NOCc1cccc(Br)c1)c1c(C)cc(=O)n(O)c1O", "> 200 µM"],
  ["CC(=NOCc1cc(F)ccc1F)c1c(C)cc(=O)n(O)c1O", "167 µM"],
  ["CC(=NOCc1ccc(F)cc1F)c1c(C)cc(=O)n(O)c1O", "> 200 µM"]
]}

Could you now consider this next molecule?
Form field Average Sol (solubility limit), entry CC(=NOCc1cccc(Cl)c1)c1c(C)cc(=O)n(O)c1O : > 200 µM

----------
system under test: CYP2D6 (Homo sapiens, UniProt P10635)
Construct: purchased Thermo Fisher Vivid 2D6 EOMCC Blue
Sequence (P10635 whole entry): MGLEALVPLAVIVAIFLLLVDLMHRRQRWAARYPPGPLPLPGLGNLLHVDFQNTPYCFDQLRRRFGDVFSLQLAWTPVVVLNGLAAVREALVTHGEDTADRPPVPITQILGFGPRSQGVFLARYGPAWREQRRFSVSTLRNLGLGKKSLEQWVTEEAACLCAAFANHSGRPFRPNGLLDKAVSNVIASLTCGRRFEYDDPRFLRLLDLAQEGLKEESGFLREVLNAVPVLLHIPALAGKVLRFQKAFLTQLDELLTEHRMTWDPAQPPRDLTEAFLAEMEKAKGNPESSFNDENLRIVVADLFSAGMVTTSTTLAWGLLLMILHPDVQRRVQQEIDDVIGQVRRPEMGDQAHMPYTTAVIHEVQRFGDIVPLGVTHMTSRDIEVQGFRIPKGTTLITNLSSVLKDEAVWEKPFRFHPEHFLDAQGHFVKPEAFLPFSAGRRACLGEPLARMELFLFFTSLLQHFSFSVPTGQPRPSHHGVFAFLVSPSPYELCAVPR
measurement protocol: Cytochrome P450 inhibition, Vivid 2D6 EOMCC Blue kit
Type: in vitro ADME
experimental parameters: dose-response 50 µM to 3 nM; mean ± SD
measured parameter: IC50 (µM)
One number for each entry, in µM.

Solved entries (count: 3):
{"columns": ["smiles notation", "IC50 (µM)"],
 "data": [
  ["CC(=NOCc1cccc(F)c1)c1c(C)cc(=O)n(O)c1O", 10.2],
  ["CC(=NOCc1ccc(F)c(F)c1)c1c(C)cc(=O)n(O)c1O", 4.46],
  ["CC(=NOCc1cccc(Cl)c1)c1c(C)cc(=O)n(O)c1O", 11.2]
]}

Could you now consider this next molecule?
Form field IC50, entry CC(=NOCc1cccc(Br)c1)c1c(C)cc(=O)n(O)c1O : 19.5

----------
measurement protocol: Solubility limit, turbidimetric assay
Assay type: physicochemical
experimental parameters: pH 6.5, replicate 2; upper limit 200 µM
measured parameter: Sol 2 (solubility limit)

Below are 5 molecules. Give each one its Sol 2 (solubility limit).
1. CC(=NOCc1ccc(Cl)cc1)c1c(C)cc(=O)n(O)c1O
2. CC(=NOCc1cc(F)ccc1F)c1c(C)cc(=O)n(O)c1O
3. CC(=NOCc1cccc(Cl)c1)c1c(C)cc(=O)n(O)c1O
4. CC(=NOCc1ccc(F)cc1F)c1c(C)cc(=O)n(O)c1O
5. CC(=NOCc1ccc(C)cc1)c1c(C)cc(=O)n(O)c1O

> 200 µM
100 µM
> 200 µM
> 200 µM
> 200 µM

----------
measurement protocol: Parallel artificial membrane permeability assay (PAMPA)
Type: in vitro ADME
experimental parameters: pH 7.4, replicate 4
Procedure: Compound Papp values were determined by normalizing the experimental compound absorbance to the compounds’ absorbances at equilibrium, membrane porosity, buffer volume, and time (s). Two or more replicate assays were obtained on separate days for each pH.
For each entry below, report its Papp 4 (PAMPA) value.
One number for each entry, in cm/s.

Solved entries (count: 5):
{"columns": ["compound", "Papp 4 (PAMPA) [cm/s]"],
 "data": [
  ["CC(=NOCc1cc(F)ccc1F)c1c(C)cc(=O)n(O)c1O [Compound 1810]", "1.29e-06"],
  ["CC(=NOCc1ccc2ccccc2c1)c1c(C)cc(=O)n(O)c1O [Compound 1811]", "4.6e-06"],
  ["CC(=NOCc1ccc(OCc2ccccc2)cc1)c1c(C)cc(=O)n(O)c1O [Compound 1738]", "1.23e-06"],
  ["CC(=NOCc1cccc(Br)c1)c1c(C)cc(=O)n(O)c1O [Compound 1621]", "4.88e-07"],
  ["CC(=NOCc1ccc(F)cc1F)c1c(C)cc(=O)n(O)c1O [Compound 1464]", "2.73e-06"]
]}

Could you now consider this next compound?
Form field Papp 4 (PAMPA), entry CC(=NOCc1ccccc1C)c1c(C)cc(=O)n(O)c1O [Compound 1681] : 1.74e-06
